Test System: Cloned Human Serotonin Receptor, Subtype 7 (h5HT7) (Homo sapiens)
Construct: purchased PerkinElmer 6120512; host or cells: CHO cells
Test Name: Radioligand binding 5HT7
Setup Conditions: read-out: % Inh (10^−6 M)
Procedure: Radioligand binding assays were performed using the Cloned Human Serotonin Receptor, Subtype 7 (h5HT7), expressed in CHO cells, coated on Flashplate (Basic FlashPlate Cat.: SMP200) from PerkinElmer (Cat.: 6120512). […] Nonspecific binding was determined with 50 μM of Clozapine. […] The radioactivity were quantified by liquid scintillation spectrophotometry (Wallac 1450 Microbeta Trilux) with a count delay of 4 minutes prior to counting and a counting time of 30 seconds per well. […]
This listing pairs compounds with measured inhibition at 1 µM.
Quantity Measured: inhibition at 1 µM (%)

Compound Structure String | Units | Recorded Number
Cc1cccc(C)c1-c1cccc(CCN(C)C)c1 | % | 105
CCN(CC)CCc1cccc(-c2c(C)nn(C)c2C)c1 | % | 98.1
CCCN(CCC)CCc1cccc(-c2c(C)nn(C)c2C)c1 | % | 90
CCCN(CCC)CCc1cccc(-c2ccccc2OC)c1 | % | 92.4
CN(C)CCc1cccc(-c2cnn(C)c2)c1 | % | 46
CCCN(CCC)CCc1cccc(-c2c(C)cccc2C)c1 | % | 93.3
COc1cccc(OC)c1-c1cccc(CCN(C)C)c1 | % | 105
COc1ccccc1-c1cccc(CCN(C)C)c1 | % | 95.4
CCN(CC)CCc1cccc(-c2c(C)cccc2C)c1 | % | 98.2

* * *

The next entries give measured pIC50 for Cloned Human Serotonin Receptor, Subtype 7 (h5HT7) (Homo sapiens, UniProt P34969).
pIC50: −log10 of the molar value. Structures can show the parent of a compound that is named as a salt.

Compound | Test System | pIC50
Cc1nn(C)c(C)c1-c1cccc2c1CCC(N(C)C)C2 (centres unmarked) | Cloned Human Serotonin Receptor, Subtype 7 (h5HT7) (Homo sapiens, UniProt P34969) | 8.41
CN[C@H]1CCc2c(cccc2-c2c(C)nn(C)c2C)C1 [Chemical Example H, hydrochloride] | Cloned Human Serotonin Receptor, Subtype 7 (h5HT7) (Homo sapiens, UniProt P34969) | 8.64

* * *

Test System: Cloned Human Serotonin Receptor, Subtype 7 (h5HT7) (Homo sapiens, UniProt P34969)
Construct: purchased PerkinElmer 6120512; host or cells: CHO cells
Sequence (P34969 whole entry): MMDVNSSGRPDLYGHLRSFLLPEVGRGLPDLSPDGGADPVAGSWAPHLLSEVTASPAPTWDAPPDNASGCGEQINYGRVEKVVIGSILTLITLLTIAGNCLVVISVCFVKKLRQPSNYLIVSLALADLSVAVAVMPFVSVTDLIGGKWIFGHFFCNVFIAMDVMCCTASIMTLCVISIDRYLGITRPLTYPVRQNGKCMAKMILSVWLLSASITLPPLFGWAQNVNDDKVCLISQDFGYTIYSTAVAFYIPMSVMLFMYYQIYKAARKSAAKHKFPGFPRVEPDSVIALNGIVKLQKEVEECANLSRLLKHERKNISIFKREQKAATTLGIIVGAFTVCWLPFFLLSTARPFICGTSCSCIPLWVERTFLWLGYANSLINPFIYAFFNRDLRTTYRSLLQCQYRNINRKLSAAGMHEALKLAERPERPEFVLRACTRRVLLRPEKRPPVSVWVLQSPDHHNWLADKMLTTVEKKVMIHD
Test Name: Radioligand binding 5HT7
Setup Conditions: read-out: % Inh (10^−8 M)
Quantity Measured: inhibition at 0.01 µM (%)

Molecule | Units | Recorded Number
CCN(CC)CCc1cccc(-c2c(C)cccc2C)c1 [Chemical Example 11] | % | -13.7
COc1ccccc1-c1cccc(CCN(C)C)c1 [Chemical Example 21] | % | 20
CCCN(CCC)CCc1cccc(-c2c(C)cccc2C)c1 [Chemical Example 12] | % | 43.8
Cc1cccc(C)c1-c1cccc(CCN(C)C)c1 [Chemical Example 9] | % | 65.9
CCCN(CCC)CCc1cccc(-c2c(C)nn(C)c2C)c1 [Chemical Example 4] | % | 48.6
COc1cccc(OC)c1-c1cccc(CCN(C)C)c1 [Chemical Example 13] | % | 54.4
Cc1nn(C)c(C)c1-c1cccc(CCN(C)C)c1 [Chemical Example 1] | % | 60.8
CCN(CC)CCc1cccc(-c2c(C)nn(C)c2C)c1 [Chemical Example 3] | % | 4.8
CCCN(CCC)CCc1cccc(-c2ccccc2OC)c1 [Chemical Example 24] | % | -1.8
CN(C)CCc1cccc(-c2cnn(C)c2)c1 [Chemical Example 17] | % | -1

* * *

Test System: Cloned Human Serotonin Receptor, Subtype 7 (h5HT7) (Homo sapiens, UniProt P34969)
Construct: purchased PerkinElmer 6120512; host or cells: CHO cells
Test Name: Radioligand binding 5HT7
Setup Conditions: read-out: 5-HT7 %-Inhib. (10^−7 M)
Structures can show the parent of a compound that is named as a salt.
This listing pairs molecules with measured inhibition at 0.1 µM.

Molecule | inhibition at 0.1 µM [%]
Cc1nn(C)c(C)c1-c1cccc2c1CCC(N(C)C)C2 (stereo not shown) | 91.3
CN[C@H]1CCc2c(cccc2-c2c(C)nn(C)c2C)C1 [Chemical Example H, hydrochloride] | 97.8
Cc1nn(C)c(C)c1-c1cccc2c1CC[C@@H](N(C)C)C2 [Chemical Example J, hydrochloride] | 9.6
Cc1nn(C)c(C)c1-c1cccc2c1CC[C@H](N(C)Cc1ccccc1)C2 | 44.7

Measured values drawn from patent US20100197717A1 for this set.
